Numbers sourced from patent US20260250318A1.

tested on: brain, spinal cord, and DRG of the NHPs; assay: NGS fold enrichment of synthetic library (passage 3) in NHPs, first cross-species screen; format: in vivo, cynomolgus macaques (Macaca fascicularis); settings: synthetic library passage 3, intravenous, RNA NGS, brain of NHPs, relative to wild-type AAV9
property_label: Fold enrichment over AAV9 in the brain of NHPs (fold)

chain	test_target	endpoint_result
GSAQVSMVGQNQQT	brain, spinal cord, and DRG of the NHPs	1.601
GSGLSHSHQQNQQT	brain, spinal cord, and DRG of the NHPs	2.109
GSLGNLQRGQNQQT	brain, spinal cord, and DRG of the NHPs	1.003
GSGIPQRSGKNQQT	brain, spinal cord, and DRG of the NHPs	3.331
GSGQVHASQVNQKT	brain, spinal cord, and DRG of the NHPs	1.049
GLGYPGSSGQNQQT	brain, spinal cord, and DRG of the NHPs	1.763
GSGQLSHQSVNQQT	brain, spinal cord, and DRG of the NHPs	1.898
GIMARDSSGQNQQT	brain, spinal cord, and DRG of the NHPs	1.972
GSGQNQQTPLRPPT	brain, spinal cord, and DRG of the NHPs	1.624
GSGQNQQTSTGVHS	brain, spinal cord, and DRG of the NHPs	1.660
GSGQQLSITPNQQT	brain, spinal cord, and DRG of the NHPs	1.979
GSGQLVTSGPNQQT	brain, spinal cord, and DRG of the NHPs	1.669
GSGQNQQTVMTARA	brain, spinal cord, and DRG of the NHPs	1.117
GRVLHSHAGQNQQT	brain, spinal cord, and DRG of the NHPs	2.513
GSGQNHRPSVLQQT	brain, spinal cord, and DRG of the NHPs	1.983
GSGHSSHSVQNQQT	brain, spinal cord, and DRG of the NHPs	3.339
GVVRNHQSGQNQQT	brain, spinal cord, and DRG of the NHPs	1.116
GSTGIVSSGQNQQT	brain, spinal cord, and DRG of the NHPs	1.570
GSGQNQQTRLVDLT	brain, spinal cord, and DRG of the NHPs	2.342
GSGHNQQVRTAPNT	brain, spinal cord, and DRG of the NHPs	1.885
GTPTSPSSGQNQQT	brain, spinal cord, and DRG of the NHPs	1.086
GSGQNERHLVLQQT	brain, spinal cord, and DRG of the NHPs	1.019
GPGLSGHSGQNQQT	brain, spinal cord, and DRG of the NHPs	1.571
GSGPILGQLQNQQT	brain, spinal cord, and DRG of the NHPs	2.097
GSGSQLMSLQNQQT	brain, spinal cord, and DRG of the NHPs	2.065
GSGQNQQHSSSHLT	brain, spinal cord, and DRG of the NHPs	1.581
GNGFSSASGQNQQT	brain, spinal cord, and DRG of the NHPs	2.493

====

test system: brain; assay: Matured TTM-001 and TTM-002 variants, NGS enrichment in mouse brain; type: in vivo, mice; details: mouse brain; relative to AAV9 control
property_label: Fold Enrichment relative to AAV9, Brain (Mouse) (fold)

chain	endpoint_result
KTINGSGSPHSKAPSLQT	70.363
KTINGSGSPHSKARGLQT	169.881
KTVPTSGSPHSKAQNQQT	102.651
KAINRSGSPHSKAQDQQT	54.631
KTINGSASPHSKAHSQQT	66.252

====

tested on: brain; test: Maturation of TTM-001 capsid, NGS enrichment in brain of CD-1 Outbred mice; type: in vivo; settings: NGS fold-enrichment of TTM-001 matured AAV capsid variants in the brain of CD-1 Outbred mice; intravenous 1.0×10^12 VG/dose; 14 days in life; RNA; relative to non-matured TTM-001 control
sequences and their reported Fold enrichment over TTM-001

chain	Fold enrichment over TTM-001
KTINGSGSPHWSLQNQQT	2.389 fold
KTINGSLSPHSCAQNQQT	3.268 fold
KTINGSGSPHSKAVRNQT	2.516 fold
KTINGSGSPHSKALCRQT	2.048 fold
KTINGRLSPHRKAQNQQT	2.238 fold
KTINGSRSPHLRAQNQQT (peptide inserted in AAV capsid)	3.410 fold
KTINGSKSPHRKAQNQQT	2.696 fold
KTINGSGSPHSKAQRLRT	4.322 fold

====

tested on: brains, heart, liver, muscle, and DRG of the NHPs; experiment: Maturation of TTM-001 and TTM-002 capsids, NGS enrichment in NHP tissues; assay type: in vivo; conditions: NHP liver RNA; NGS; TTM-001 and TTM-002 matured AAV capsid variants; relative to AAV9 control
property_label: Fold Enrichment relative to AAV9, Liver RNA (NHP) (fold)

chain	test_target	unit	endpoint_result
KTINGRPSPHGKAQNQQT	brains, heart, liver, muscle, and DRG of the NHPs	fold	14.442
KTRTRSGSPHSKAQNQQT	brains, heart, liver, muscle, and DRG of the NHPs	fold	25.852
KTINGRRSPHGKAQNQQT	brains, heart, liver, muscle, and DRG of the NHPs	fold	37.728
KTINGSGSPHSYARNQQT	brains, heart, liver, muscle, and DRG of the NHPs	fold	11.131
KTINGSGSPHSKPKRQQT	brains, heart, liver, muscle, and DRG of the NHPs	fold	52.881
KTTRCSGSPHSKAQNQQT	brains, heart, liver, muscle, and DRG of the NHPs	fold	12.639
KTINGSGSPHSRCPNQQT	brains, heart, liver, muscle, and DRG of the NHPs	fold	39.529
KTINGSGSPHSKKTSQQT	brains, heart, liver, muscle, and DRG of the NHPs	fold	15.244
KTINGSGSPHSKWKSQQT	brains, heart, liver, muscle, and DRG of the NHPs	fold	20.390
KTINGSGSPHSKCFLQQT	brains, heart, liver, muscle, and DRG of the NHPs	fold	22.987
KTINGSGSPHSKAQTCRT	brains, heart, liver, muscle, and DRG of the NHPs	fold	26.472

====

test system: brain, spinal cord, and DRG of the NHPs; experiment: NGS fold enrichment of synthetic library (passage 3) in NHPs, first cross-species screen; assay type: in vivo, cynomolgus macaques (Macaca fascicularis); conditions: synthetic library passage 3, intravenous, RNA NGS, spinal cord of NHPs, relative to wild-type AAV9
Fold enrichment over AAV9 in the spinal cord of NHPs vs 1 fold: less than gives Yes; not less than gives No.

chain	group_label
GPGSAHSSGQNQQT	No
GDAGVRSSGQNQQT	No
GSGSPRQLSQNQQT	Yes
GSGQNGHLSLKQQT	No
GLAGHTVSGQNQQT	Yes
GSVHLSVTGQNQQT	No
GSGMPASRLQNQQT	No
GSNMGVPLGQNQQT	No
GRGQVVSTHQNQQT	No
GSGQNQQTRLTDLT	No
GSLGNLQRGQNQQT	Yes
GALVSPISGQNQQT	No
GSGHIYVGIQNQQT	No

====

tested on: brains, heart, liver, muscle, and DRG of the NHPs; assay: Maturation of TTM-001 and TTM-002 capsids, NGS enrichment in NHP tissues; type: in vivo; conditions: NGS fold-enrichment, DRG of NHPs, relative to AAV9 control
property_label: Fold Enrichment relative to AAV9, DRG (NHP) (fold)

chain	test_target	unit	endpoint_result
KTINGGGSPHSKAQNQQC	brains, heart, liver, muscle, and DRG of the NHPs	fold	0.219
KTEDKSGSPHSKAQNQQT	brains, heart, liver, muscle, and DRG of the NHPs	fold	0.000
KTEKSSGSPHSKAQNQQT	brains, heart, liver, muscle, and DRG of the NHPs	fold	0.000
KTVNGSGSPHSKARDQQT	brains, heart, liver, muscle, and DRG of the NHPs	fold	0.123
KTVHGNGSPHSKAQNQQT	brains, heart, liver, muscle, and DRG of the NHPs	fold	0.000
KTINGSGSPHSKAQAPAT	brains, heart, liver, muscle, and DRG of the NHPs	fold	0.000
KTVRDSGSPHSKAQNQQT	brains, heart, liver, muscle, and DRG of the NHPs	fold	0.000
KESDGSGSPHSKAQNQQT	brains, heart, liver, muscle, and DRG of the NHPs	fold	0.000
KTINGSGSPHSKAQNTYA	brains, heart, liver, muscle, and DRG of the NHPs	fold	0.000
KTDKSSGSPHSKAQNQQT	brains, heart, liver, muscle, and DRG of the NHPs	fold	0.055
KTERSSGSPHSKAQNQQT	brains, heart, liver, muscle, and DRG of the NHPs	fold	0.000
KTEKVSGSPHSKAQNQQT	brains, heart, liver, muscle, and DRG of the NHPs	fold	0.000
KTVNGGGSPHSKAQSQQT	brains, heart, liver, muscle, and DRG of the NHPs	fold	0.000

====

tested on: brain; test: NGS fold enrichment of synthetic library (passage 3) in BALB/c mice, first cross-species screen; type: in vivo; conditions: synthetic library passage 3, intravenous, RNA NGS, brain of BALB/c mice, relative to wild-type AAV9
property_label: Fold enrichment over AAV9 in the brain of Mice (BALB/c) (fold)

chain	unit	endpoint_result
GSGLSHATQQNQQT	fold	0.638
GSGQNQQTGQATHN	fold	0.527
GIARTTISGQNQQT	fold	0.330
GPLVNASSGQNQQT	fold	0.343
GSGKVTKQSQNQQT	fold	1.035
GALVSPISGQNQQT	fold	0.347
GSGQNQQTSMSNAT	fold	0.745
GSFYPSSTGQNQQT	fold	0.277
GSGMLTHTLQNQQT	fold	0.199
GSGQQLSITPNQQT	fold	0.201
